Item-by-item account of apparent KD of MS2 coat protein
# Tested on: MS2 coat protein
# measurement_protocol: apparent KD of MS2 coat protein; designed switch direction (-1 OFF switch, 1 ON switch): -1; higher = weaker reporter binding
# protocol_conditions: input ligand: none
Please state the figure in nM; there is no need to write the unit.

record_sequence | unit_name | apparent KD of MS2 coat protein
UUAAAGUCAGGAUAUACAUGAGGAUCACCCAUGUAAAAUUUUAAUUUAAUUUGAAGGUGUAGAAGGGACAAAUU [Ex3 #36] (Eterna round: R97, puzzle: Exclusion 3) | nM | 26
GCCCGGGCAGGAUAUACAAUGAGCUUGAGAAAUCGAGUUCGACAUGAGGAUCACCCAUGUAGAAGGGCCCGGGC [-37.4, -35.1 kcal, A 28% 1] (Eterna round: R97, puzzle: Exclusion 2) | nM | 14.9
GGAGGAAGAGAGGAUAUGCGCGCAAGGAGCUUAGCAGAAGGUUCAACAUGAGGAUCACCCAUGUAUGAUCCUCA [AK-MS2ROC-r4-exclusion6-5] (Eterna round: R97, puzzle: Exclusion 6) | nM | 318
GCGCAAACGCCAAAAGGCGAAACAACAUGAGGAUCACCCAUGUAGGAUAUCGAUUGCUUUGCAGUCGAGAAGGACGUAAUGCGC [JL ENG3 3.80 Mod 5] (Eterna round: R96, puzzle: Exclusion NG 3) | nM | 22.1

Using known records, supply apparent KD of MS2 coat protein for AGUACUAACACGAAAGUGUUAGUUCAAUAAGCUUGUGAAACAUGAGGAUCACCCAUGUCCUCAUAAGCUCGUCUUAU [salish99_TOv2_r3_040] (Eterna round: R96, puzzle: Sensor v3, turn-off variant 2)
17.5

Using known records, supply apparent KD of MS2 coat protein for AGCCACAGAGGAUAUACAUACAUCCAGUAGUUAAGAAUAUUACAUGAGGAUCACCCAUGUAGAAGGCUGUGGCA [Omei Ex2 BD B7] (Eterna round: R97, puzzle: Exclusion 2)
35.4

Using known records, supply apparent KD of MS2 coat protein for CCGAAAAGGAAGGAUAUGCUAGACGAAAGUCUAGCAGAAGGUCCUACAUGAGGAUCACCCAUGUGGUCCUUCGG [Mat - Exclusion 6 - Eli Mod - D35] (Eterna round: R97, puzzle: Exclusion 6)
448

This collection of values is drawn from the supplement of paper PMC9170038.
